measurement-description: Therapeutic index, ratio of CC50 for African green monkey Vero cells to IC50 for Herpes simplex virus 1 KOS
Format: cell-based
assay-conditions: read-out: Ratio CC50/IC50
// reported selectivity ratio for each item listed
Kindly provide the number alone.

For the compound shown here, CCCOC(=O)C1=C(C)NC(=S)NC1c1cccs1 (centres undefined) , give the reported selectivity ratio.
2.9

For the compound shown here, COC(=O)C1=C(C)NC(=O)NC1c1ccc(Br)cc1 (centres undefined) , give the reported selectivity ratio.
111

For the compound shown here, CCOC(=O)C1=C(C)N(C)C(=O)NC1c1ccc(F)cc1 (centres undefined) , give the reported selectivity ratio.
1

For the compound shown here, COC(=O)C1=C(C)NC(=O)NC1c1ccc(F)cc1 (centres undefined) , give the reported selectivity ratio.
1
